assayNotes: Drug level in healthy human lung epithelial lining fluid at 400 mg, po every 12 hrs for 7 days measured after 3 hrs of last dose
Type: ADME, organism-based
conditionSet: read-out: Drug uptake

{"moleculeSmiles": "CC[C@@H]([C@H](C)O)n1ncn(-c2ccc(N3CCN(c4ccc(OC[C@@H]5CO[C@@](Cn6cncn6)(c6ccc(F)cc6F)C5)cc4)CC3)cc2)c1=O", "valueUnits": "ng/mL", "concentration at 3 h": 1660}

###

assayNotes: Cmax in healthy human lung epithelial lining fluid at 400 mg, po every 12 hrs for 7 days
Format: ADME, organism-based
Design: dose 400 mg, route oral

{"moleculeSmiles": "CC[C@@H]([C@H](C)O)n1ncn(-c2ccc(N3CCN(c4ccc(OC[C@@H]5CO[C@@](Cn6cncn6)(c6ccc(F)cc6F)C5)cc4)CC3)cc2)c1=O", "Cmax": "1860 ng/mL"}
